Numbers sourced from patent US20230263822A1.

conditions: mouse, in vivo, sc, 50 mg/kg
Measured Endpoint: HCT (%)
Give the value, in units of %, as a plain number.

{"Substance": "ISIS 416850: MOE gapmer, nucleobases 1275 to 1318 of SEQ ID NO: 1 (Table 8) (antisense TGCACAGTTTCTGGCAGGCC; MOE gapmer, wing and gap sizes not given here)", "Unit Annotation": "%", "HCT": 49}
{"Substance": "ISIS 416859: MOE gapmer, nucleobases 1275 to 1318 of SEQ ID NO: 1 (Table 8) (antisense GACGGCATTGGTGCACAGTT; MOE gapmer, wing and gap sizes not given here)", "Unit Annotation": "%", "HCT": 49}

Ask | Endpoint output: HCT of ISIS 416849: MOE gapmer, nucleobases 1275 to 1318 of SEQ ID NO: 1 (Table 8) (antisense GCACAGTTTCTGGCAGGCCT; MOE gapmer, wing and gap sizes not given here) . Value?
Reply | 48

----------
experiment: Hematology assays in cynomolgus monkeys (Example 46); type: in vivo; details: Day-5
Strand notation (5' to 3'): a small letter for the sugar, then the base; units joined by * are phosphorothioate-linked, units joined directly phosphodiester-linked; [ ] holds rarer units or linkages, { } end groups; capitals alone tell only the bases. e = 2'-O-(2-methoxyethyl) (MOE); [5mC] = 5-methylcytosine; d = 2'-deoxy (DNA)
This section presents substances with their documented MCV values.
Give the value, in units of fL, as a plain number.

Below: 3 substances and their reported MCV.
{"Substance": "ISIS 449708: 3-8-3, 4-8-4, 2-10-2, 3-10-3 or 4-10-4 MOE microwalk gapmer (Table 46) (antisense eA*e[5mC]*eA*dG*dT*dT*dT*d[5mC]*dT*dG*dG*e[5mC]*eA*eG)", "Measured Endpoint": "MCV", "Numeric Value": 75}
{"Substance": "ISIS 449711: 3-8-3, 4-8-4, 2-10-2, 3-10-3 or 4-10-4 MOE microwalk gapmer (Table 46) (antisense eA*e[5mC]*dA*dG*dT*dT*dT*d[5mC]*dT*dG*dG*d[5mC]*eA*eG)", "Measured Endpoint": "MCV", "Numeric Value": 74}
{"Substance": "ISIS 445522: 5-8-5 or 6-8-6 MOE microwalk gapmer (Table 44) (antisense eG*e[5mC]*eA*e[5mC]*eA*dG*dT*dT*dT*d[5mC]*dT*dG*dG*e[5mC]*eA*eG*eG*e[5mC])", "Measured Endpoint": "MCV", "Numeric Value": 74}

Shift focus to the following entry.
Ask | Endpoint output: MCV of ISIS 449707: 3-8-3, 4-8-4, 2-10-2, 3-10-3 or 4-10-4 MOE microwalk gapmer (Table 46) (antisense e[5mC]*eA*e[5mC]*eA*dG*dT*dT*dT*d[5mC]*dT*dG*dG*e[5mC]*eA*eG*eG) . Value?
Reply | 75

----------
system: human Factor 11 mRNA; experiment: Dose-dependent inhibition of human Factor 11 in HepG2 cells, lipofectin 9.375-75 nM (Example 4); assay type: cell-based; settings: 18.75 nM, relative to untreated control cells
Strand notation (5' to 3'): a small letter for the sugar, then the base; units joined by * are phosphorothioate-linked, units joined directly phosphodiester-linked; [ ] holds rarer units or linkages, { } end groups; capitals alone tell only the bases. e = 2'-O-(2-methoxyethyl) (MOE); [5mC] = 5-methylcytosine; d = 2'-deoxy (DNA)
This section presents substances with their documented percent inhibition of Factor 11 at 18.75 nM values.

Below: 2 substances and their reported percent inhibition of Factor 11 at 18.75 nM.
{"Substance": "416896 (antisense eT*eT*eA*dT*dG*d[5mC]*d[5mC]*d[5mC]*dT*dT*d[5mC]*dA*dT*dG*dT*d[5mC]*dT*eA*eG*eG) [compound 416896]", "Result": "39%"}
{"Substance": "416969 (antisense eG*e[5mC]*d[5mC]*d[5mC]*dT*dT*d[5mC]*dA*dT*dG*dT*d[5mC]*dT*dA*dG*eG*eT*e[5mC]*e[5mC]*eA) [compound 416969]", "Result": "39%"}

Shift focus to the following entry.
Ask | Endpoint output: percent inhibition of Factor 11 at 18.75 nM of 416972 (antisense eT*eA*dT*dG*d[5mC]*d[5mC]*d[5mC]*dT*dT*d[5mC]*dA*dT*dG*dT*d[5mC]*eT*eA*eG*eG*eT) [compound 416972] . Value?
Reply | 40%

----------
This section presents substances with their documented BUN levels values.
assay: Kidney function, BUN, urine protein to creatinine ratio in cynomolgus monkeys (Example 46); format: in vivo; conditions: Day 31
Strand notation (5' to 3'): a small letter for the sugar, then the base; units joined by * are phosphorothioate-linked, units joined directly phosphodiester-linked; [ ] holds rarer units or linkages, { } end groups; capitals alone tell only the bases. e = 2'-O-(2-methoxyethyl) (MOE); [5mC] = 5-methylcytosine; d = 2'-deoxy (DNA)
Express the reported value numerically, then name its unit.

Below: 2 substances and their reported BUN levels.
{"Substance": "ISIS 449707: 3-8-3, 4-8-4, 2-10-2, 3-10-3 or 4-10-4 MOE microwalk gapmer (Table 46) (antisense e[5mC]*eA*e[5mC]*eA*dG*dT*dT*dT*d[5mC]*dT*dG*dG*e[5mC]*eA*eG*eG)", "BUN levels": "21 mg/dL"}
{"Substance": "ISIS 445522: 5-8-5 or 6-8-6 MOE microwalk gapmer (Table 44) (antisense eG*e[5mC]*eA*e[5mC]*eA*dG*dT*dT*dT*d[5mC]*dT*dG*dG*e[5mC]*eA*eG*eG*e[5mC])", "BUN levels": "22 mg/dL"}

Shift focus to the following entry.
Ask | Endpoint output: BUN levels of ISIS 445531: 5-8-5 or 6-8-6 MOE microwalk gapmer (Table 44) (antisense eG*eG*e[5mC]*eA*eT*dT*dG*dG*dT*dG*d[5mC]*dA*d[5mC]*eA*eG*eT*eT*eT) . Value?
Reply | 20 mg/dL

----------
test: Hematology assays in cynomolgus monkeys (Example 46); format: in vivo; settings: Day 45
Strand notation (5' to 3'): a small letter for the sugar, then the base; units joined by * are phosphorothioate-linked, units joined directly phosphodiester-linked; [ ] holds rarer units or linkages, { } end groups; capitals alone tell only the bases. e = 2'-O-(2-methoxyethyl) (MOE); [5mC] = 5-methylcytosine; d = 2'-deoxy (DNA)
This section presents substances with their documented neutrophils values.
Give the value, in units of %, as a plain number.

Ask | Endpoint output: neutrophils of ISIS 416858: MOE gapmer, nucleobases 1275 to 1318 of SEQ ID NO: 1 (Table 8) (antisense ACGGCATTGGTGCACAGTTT; MOE gapmer, wing and gap sizes not given here) . Value?
Reply | 61

Ask | Endpoint output: neutrophils of ISIS 416850: MOE gapmer, nucleobases 1275 to 1318 of SEQ ID NO: 1 (Table 8) (antisense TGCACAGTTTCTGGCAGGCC; MOE gapmer, wing and gap sizes not given here) . Value?
Reply | 85

Ask | Endpoint output: neutrophils of ISIS 449707: 3-8-3, 4-8-4, 2-10-2, 3-10-3 or 4-10-4 MOE microwalk gapmer (Table 46) (antisense e[5mC]*eA*e[5mC]*eA*dG*dT*dT*dT*d[5mC]*dT*dG*dG*e[5mC]*eA*eG*eG) . Value?
Reply | 89

Ask | Endpoint output: neutrophils of ISIS 449710: 3-8-3, 4-8-4, 2-10-2, 3-10-3 or 4-10-4 MOE microwalk gapmer (Table 46) (antisense e[5mC]*eA*e[5mC]*dA*dG*dT*dT*dT*d[5mC]*dT*dG*dG*d[5mC]*eA*eG*eG) . Value?
Reply | 97

----------
tested on: human Factor 11 mRNA; assay: Antisense inhibition of human Factor 11 in HepG2 cells by microwalk gapmers, lipofectin, 75 nM (Example 3); type: cell-based; conditions: HepG2 cells, lipofectin, gapmers targeted to nucleobases 1062 to 1091 of SEQ ID NO: 1
Strand notation (5' to 3'): a small letter for the sugar, then the base; units joined by * are phosphorothioate-linked, units joined directly phosphodiester-linked; [ ] holds rarer units or linkages, { } end groups; capitals alone tell only the bases. e = 2'-O-(2-methoxyethyl) (MOE); [5mC] = 5-methylcytosine; d = 2'-deoxy (DNA)
Assign Criterion met to entries whose % inhibition meets or exceeds 80%; assign Criterion not met to the rest.

Ask | hey, is % inhibition for this one >= 80%? 416844 (antisense e[5mC]*eT*eT*eT*eG*dA*dG*dA*dT*dT*d[5mC]*dT*dT*dT*dG*eG*eG*e[5mC]*e[5mC]*eA) [compound 416844]
Reply | Criterion met

Ask | hey, is % inhibition for this one >= 80%? 416918 (antisense eT*eT*e[5mC]*dT*dT*dT*dG*dA*dG*dA*dT*dT*d[5mC]*dT*dT*dT*dG*eG*eG*e[5mC]) [compound 416918]
Reply | Criterion not met

Ask | hey, is % inhibition for this one >= 80%? 416913 (antisense eT*eG*eA*dG*dA*dT*dT*d[5mC]*dT*dT*dT*dG*dG*dG*d[5mC]*d[5mC]*dA*eT*eT*e[5mC]) [compound 416913]
Reply | Criterion met

Ask | hey, is % inhibition for this one >= 80%? 416916 (antisense e[5mC]*eT*eT*dT*dG*dA*dG*dA*dT*dT*d[5mC]*dT*dT*dT*dG*dG*dG*e[5mC]*e[5mC]*eA) [compound 416916]
Reply | Criterion met

Ask | hey, is % inhibition for this one >= 80%? 416986 (antisense eA*eT*dT*d[5mC]*dT*dT*dT*dG*dG*dG*d[5mC]*d[5mC]*dA*dT*dT*e[5mC]*e[5mC]*eT*eG*eG) [compound 416986]
Reply | Criterion met

Ask | hey, is % inhibition for this one >= 80%? 416994 (antisense eT*e[5mC]*dT*dT*dT*dG*dA*dG*dA*dT*dT*d[5mC]*dT*dT*dT*eG*eG*eG*e[5mC]*e[5mC]) [compound 416994]
Reply | Criterion met

Ask | hey, is % inhibition for this one >= 80%? 416912 (antisense eG*eA*eG*dA*dT*dT*d[5mC]*dT*dT*dT*dG*dG*dG*d[5mC]*d[5mC]*dA*dT*eT*e[5mC]*e[5mC]) [compound 416912]
Reply | Criterion met

Ask | hey, is % inhibition for this one >= 80%? 416988 (antisense eA*eG*dA*dT*dT*d[5mC]*dT*dT*dT*dG*dG*dG*d[5mC]*d[5mC]*dA*eT*eT*e[5mC]*e[5mC]*eT) [compound 416988]
Reply | Criterion not met

Ask | hey, is % inhibition for this one >= 80%? 416846 (antisense eT*eT*e[5mC]*eT*eT*dT*dG*dA*dG*dA*dT*dT*d[5mC]*dT*dT*eT*eG*eG*eG*e[5mC]) [compound 416846]
Reply | Criterion not met

Ask | hey, is % inhibition for this one >= 80%? 416842 (antisense eT*eG*eA*eG*eA*dT*dT*d[5mC]*dT*dT*dT*dG*dG*dG*d[5mC]*e[5mC]*eA*eT*eT*e[5mC]) [compound 416842]
Reply | Criterion met

Ask | hey, is % inhibition for this one >= 80%? 416991 (antisense eT*eT*dG*dA*dG*dA*dT*dT*d[5mC]*dT*dT*dT*dG*dG*dG*e[5mC]*e[5mC]*eA*eT*eT) [compound 416991]
Reply | Criterion met

Ask | hey, is % inhibition for this one >= 80%? 416917 (antisense eT*e[5mC]*eT*dT*dT*dG*dA*dG*dA*dT*dT*d[5mC]*dT*dT*dT*dG*dG*eG*e[5mC]*e[5mC]) [compound 416917]
Reply | Criterion met

Ask | hey, is % inhibition for this one >= 80%? 416992 (antisense eT*eT*dT*dG*dA*dG*dA*dT*dT*d[5mC]*dT*dT*dT*dG*dG*eG*e[5mC]*e[5mC]*eA*eT) [compound 416992]
Reply | Criterion met

Ask | hey, is % inhibition for this one >= 80%? 416990 (antisense eT*eG*dA*dG*dA*dT*dT*d[5mC]*dT*dT*dT*dG*dG*dG*d[5mC]*e[5mC]*eA*eT*eT*e[5mC]) [compound 416990]
Reply | Criterion not met

Ask | hey, is % inhibition for this one >= 80%? 416989 (antisense eG*eA*dG*dA*dT*dT*d[5mC]*dT*dT*dT*dG*dG*dG*d[5mC]*d[5mC]*eA*eT*eT*e[5mC]*e[5mC]) [compound 416989]
Reply | Criterion met

Ask | hey, is % inhibition for this one >= 80%? 416845 (antisense eT*e[5mC]*eT*eT*eT*dG*dA*dG*dA*dT*dT*d[5mC]*dT*dT*dT*eG*eG*eG*e[5mC]*e[5mC]) [compound 416845]
Reply | Criterion met

Ask | hey, is % inhibition for this one >= 80%? 416840 (antisense eA*eG*eA*eT*eT*d[5mC]*dT*dT*dT*dG*dG*dG*d[5mC]*d[5mC]*dA*eT*eT*e[5mC]*e[5mC]*eT) [compound 416840]
Reply | Criterion met

Ask | hey, is % inhibition for this one >= 80%? 416911 (antisense eA*eG*eA*dT*dT*d[5mC]*dT*dT*dT*dG*dG*dG*d[5mC]*d[5mC]*dA*dT*dT*e[5mC]*e[5mC]*eT) [compound 416911]
Reply | Criterion met
